measurement-protocol: folding stability dG unfold from chymotrypsin proteolysis; higher = more stable
assay-readout: folding stability dG unfold (kcal/mol)
Just the number in kcal/mol, nothing appended.

Recorded results for 3 sequences are shown here.
SAGGSAGGSMETVTVLLNTPGTPVTFTFPVPAGVGEEAVKELVRKALPEVEIEVVEITTTPAASAGGSAGGS [r12_427_JUSTAS]
0.585
SAGGSAGGSAMKVPLENVENPKKFPGTGLEIYTFTDKETGKKKIVLVEKPPNKGKKITVIESAGGSAGGSAG [r3_491_JUSTAS]
-0.146
SGPALEILRAASEEEGVPVLAEVVPDADGNPVIPAVVWSPEDIEAGELPGEVKEAPITVDGKTYRVVLFASA [r9_489_TrMRF]
-0.0942

In plain terms, SAGGSAGGSMNPEVPYAKVTLELKLPDGTTATLTLEVPLEEIPKVIEELKKKGYEILSIKIEPSAGGSAGGS [r12_986_JUSTAS] has a documented folding stability dG unfold of 5.02

In plain terms, SAGGTFQVKDPNGKQKPVQLRVRITFEFKGGDKQTFEIEVEGATVDDLREFANSLMNKGFKPVSIEIWSAGG [r13_227_TrROS] has a documented folding stability dG unfold of 2.03

In plain terms, SAGGSAMTLEEARELVERLVRELFPDAEVLDVDAVRLPDRLVLVDAVVRPKYRPDEVLRFRFLLGDSAGGSA [r15_627_TrMRF] has a documented folding stability dG unfold of 4.11

In plain terms, SAGGSAGGSAGGMSSTVSLSTSFLPNGEKVVTTTTTFTDSSTTTTTTTTTTVALPPPSVVSAGGSAGGSAGG [r7_495_JUSTAS] has a documented folding stability dG unfold of 0.984

* * *

measurement-protocol: folding stability dG unfold from chymotrypsin proteolysis; higher = more stable
Note to self: values exactly at 3 kcal/mol are true (1). So folding stability dG unfold at or above 3 kcal/mol is true (1), below is false (0).

Worked cases, answers included:
SAGGSGDPNAAPVVVKVTIDITRPTADDSYVTSPVELTLLESEVDEFLAELEKEPDLELKVEVTLESAGGSA [r2_270_JUSTAS]
false (0)
SKIKKIKRVEIFKKKEKGYVVKITVEIDGKEYEFTVPAGMSLEEALKELLKNKDVKIKSVEIKPVSKEELSA [r9_607_TrROS_Hall]
false (0)
SAGGMPEKVVVLRIRVTIRRDGEEEEIELEIRLPEEGQELTEEQLLALLRELLPPGYEIRRVEIEELSAGGS [r16_407_TrROS_Hall]
true (1)
SAGGSAGGSMLRVEVTLENGEKIEVEIEVPPGEELTLDEILAELKEKYPDLKVTEIKIEFLEPSAGGSAGGS [r12_262_TrROS_Hall]
false (0)
GSMTIPVVLPPGVRLPLSELWAIAKQYGGKLTATVYDPETGTSTSVTFPGGQLGDSTMAPGERTVNVTVVGS [r1_238_JUSTAS]
false (0)

Is it the case that SAGGSVTITSITSIDTSSLSPDSVVTADVPDGKPVLIKGKVPPDGSVILTFYTPDGKPVATFTIPSSAGGSA [r2_323_JUSTAS] has folding stability dG unfold reaching or exceeding 3 kcal/mol?
false (0)

Is it the case that SAGGMRIRIVVPPEMSPEEIAELLKKLFPDYEIKVEVKTVKVKVKDEETGEEYEVEVLVVEIEIKEKSAGGS [r16_828_TrROS_Hall] has folding stability dG unfold reaching or exceeding 3 kcal/mol?
true (1)

Is it the case that SAGGKPLEPKIEVEVIPLPSGERVITLRVEVPPNDPLKIKFPGLKKEVEFPGDDEVEFRVVVPPDSFSAGGS [r16_56_TrMRF] has folding stability dG unfold reaching or exceeding 3 kcal/mol?
false (0)

Is it the case that SAGGSAGMPLVTAPVTRDPNSDVVTLTVYDPRTGETHTYTSPGSVEEAVEAFREATGLPISEVVLESAGGSA [r15_101_JUSTAS] has folding stability dG unfold reaching or exceeding 3 kcal/mol?
false (0)

Is it the case that SAGGWRLRIHIENPGNGRWITHTFPMPPGNIEKIADDMLEMLPGWKITGVEIVYEPGWITITARVKPKSAGG [r13_196_TrROS] has folding stability dG unfold reaching or exceeding 3 kcal/mol?
false (0)

Is it the case that SAGGSMGSKKVGEIELEVEIGDEKVKVKVTLYETESPDDSVSLTLDVDVEHPNGKKISKELFEKLFSAGGSA [r2_363_TrMRF] has folding stability dG unfold reaching or exceeding 3 kcal/mol?
false (0)

Is it the case that SKTIVIELENIEDMTKEELKNLIKELAEKGETVKVTILNKDGKEVKTIEIKPGEIVPFPKGSKVLIKIEKSA [r9_264_TrROS_Hall] has folding stability dG unfold reaching or exceeding 3 kcal/mol?
false (0)

Is it the case that SAGGMVTITLPEVNVEDPEVAEARMEEIAARLRAAGVTVTSASYDPEKGLATITVSAGGLSAAEVLASAGGS [r8_344_JUSTAS] has folding stability dG unfold reaching or exceeding 3 kcal/mol?
false (0)
